# System: c-Src;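 also: 11-residue human phosphosite peptides and single-mutation variants displayed on the E. coli surface, counted by deep sequencing, each peptide's frequency after selection divided by its frequency in the unselected input library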;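 also: frequency after pTyr selection over input frequency; kinase dosed for 20-30% of maximal phosphorylation in three min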
# measurement_protocol: phosphorylation enrichment, bacterial display (enrichment ratio); higher = better substrate or ligand; peptides without Tyr show the background
phosphorylation enrichment: recorded values
Quick one: just the number, no unit, thanks!

[[record]]
residues = "PFFASYPPSPD [GDAP2_Y491_T489A_YF]"
test_value = 0.488

[[record]]
residues = "AGADGYGYLAP [FOXL2_Y186]"
test_value = 0.372

[[record]]
residues = "NLNGKYNKPRA [ANGPTL3_Y417]"
test_value = 0.334

[[record]]
residues = "QDEHGYISLCF [HSPB1_Y133_R136L]"
test_value = 1.16

[[record]]
residues = "MALDRYVAICK [OR2B11_Y127]"
test_value = 0.454


Input: For RMGNLYDIDED [GRIN2A_Y1246] , what is its reported phosphorylation enrichment?
Output: 1.25

Input: Now the same for ETKENYGKTLK [CHL1_Y291]
Output: 0.433

Input: Now the same for KLQKFYRQNPD [EHHADH_Y683_YF]
Output: 0.409
